Readings of shrunken log2 fold change for the listed sequences
# Test system: Escherichia coli TOP10;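 also: peptides expressed intracellularly from a pBAD plasmid library in pooled LB shake-flask culture, induced with 0.3% L-arabinose, DNA abundance read by NGS, three biological replicates, DESeq2 with apeglm shrinkage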
# protocol description: shrunken log2 fold change of peptide-encoding DNA abundance (4.5 h post-induction vs induction); higher = less antimicrobial activity (less host growth inhibition)
# assay context: time post-induction: 4.5 h; library: site-saturation at positions 5, 18, 19, 20

>  <query sequence>
RRIRFRPPRLPRPRPRPWRTPRP

>  <shrunken log2 fold change>
-0.0041

$$$$
>  <query sequence>
RRIRARPPRLPRPRPRPWRKPRP

>  <shrunken log2 fold change>
0.0387

$$$$
>  <query sequence>
RRIRERPPRLPRPRPRPLIWPRP

>  <shrunken log2 fold change>
-0.364

$$$$
>  <query sequence>
RRIRPRPPRLPRPRPRPLVMPRP

>  <shrunken log2 fold change>
0.0377

$$$$
>  <query sequence>
RRIRDRPPRLPRPRPRPYVQPRP

>  <shrunken log2 fold change>
-0.13

$$$$
>  <query sequence>
RRIRERPPRLPRPRPRPRALPRP

>  <shrunken log2 fold change>
0.0317

$$$$
>  <query sequence>
RRIRGRPPRLPRPRPRPYLRPRP

>  <shrunken log2 fold change>
-0.0169

$$$$
>  <query sequence>
RRIRARPPRLPRPRPRPYVSPRP

>  <shrunken log2 fold change>
-0.0383

$$$$
>  <query sequence>
RRIRHRPPRLPRPRPRPNHRPRP

>  <shrunken log2 fold change>
-0.0366

$$$$
>  <query sequence>
RRIRDRPPRLPRPRPRPSPTPRP

>  <shrunken log2 fold change>
-0.0251

$$$$
>  <query sequence>
RRIRWRPPRLPRPRPRPFGRPRP

>  <shrunken log2 fold change>
-0.0754

$$$$
>  <query sequence>
RRIRERPPRLPRPRPRPQGKPRP

>  <shrunken log2 fold change>
-0.345

$$$$
>  <query sequence>
RRIRWRPPRLPRPRPRPDGFPRP

>  <shrunken log2 fold change>
-0.0231

$$$$
>  <query sequence>
RRIRHRPPRLPRPRPRPVFLPRP

>  <shrunken log2 fold change>
-0.582

$$$$
>  <query sequence>
RRIRGRPPRLPRPRPRPTNTPRP

>  <shrunken log2 fold change>
0.676

$$$$
>  <query sequence>
RRIRPRPPRLPRPRPRPLDGPRP

>  <shrunken log2 fold change>
0.0208

$$$$
>  <query sequence>
RRIRKRPPRLPRPRPRPWFVPRP

>  <shrunken log2 fold change>
-0.036

$$$$
>  <query sequence>
RRIRARPPRLPRPRPRPWWSPRP

>  <shrunken log2 fold change>
0.271

$$$$
>  <query sequence>
RRIRQRPPRLPRPRPRPNLTPRP

>  <shrunken log2 fold change>
-0.432

$$$$
>  <query sequence>
RRIRNRPPRLPRPRPRPEGTPRP

>  <shrunken log2 fold change>
0.105

$$$$
>  <query sequence>
RRIRRRPPRLPRPRPRPARPPRP

>  <shrunken log2 fold change>
0.703

$$$$
>  <query sequence>
RRIRTRPPRLPRPRPRPLHVPRP

>  <shrunken log2 fold change>
-0.175

$$$$
>  <query sequence>
RRIRWRPPRLPRPRPRPHKDPRP

>  <shrunken log2 fold change>
-0.115

$$$$
>  <query sequence>
RRIRRRPPRLPRPRPRPFTWPRP

>  <shrunken log2 fold change>
-0.126

$$$$
>  <query sequence>
RRIRRRPPRLPRPRPRPWDIPRP

>  <shrunken log2 fold change>
0.0194

$$$$
>  <query sequence>
RRIRKRPPRLPRPRPRPYYCPRP

>  <shrunken log2 fold change>
0.32

$$$$
>  <query sequence>
RRIRDRPPRLPRPRPRPKIFPRP

>  <shrunken log2 fold change>
-0.0898

$$$$
>  <query sequence>
RRIRKRPPRLPRPRPRPIGEPRP

>  <shrunken log2 fold change>
-0.0126

$$$$
>  <query sequence>
RRIRLRPPRLPRPRPRPKNVPRP

>  <shrunken log2 fold change>
-0.124

$$$$
>  <query sequence>
RRIRPRPPRLPRPRPRPESTPRP

>  <shrunken log2 fold change>
0.118

$$$$
>  <query sequence>
RRIRHRPPRLPRPRPRPSPTPRP

>  <shrunken log2 fold change>
0.0862

$$$$
>  <query sequence>
RRIRHRPPRLPRPRPRPTWCPRP

>  <shrunken log2 fold change>
0.582

$$$$
